# Study system: T1, human prolactin receptor (PRLR) (human, UniProt P16471 25-622)
# T1 sequence: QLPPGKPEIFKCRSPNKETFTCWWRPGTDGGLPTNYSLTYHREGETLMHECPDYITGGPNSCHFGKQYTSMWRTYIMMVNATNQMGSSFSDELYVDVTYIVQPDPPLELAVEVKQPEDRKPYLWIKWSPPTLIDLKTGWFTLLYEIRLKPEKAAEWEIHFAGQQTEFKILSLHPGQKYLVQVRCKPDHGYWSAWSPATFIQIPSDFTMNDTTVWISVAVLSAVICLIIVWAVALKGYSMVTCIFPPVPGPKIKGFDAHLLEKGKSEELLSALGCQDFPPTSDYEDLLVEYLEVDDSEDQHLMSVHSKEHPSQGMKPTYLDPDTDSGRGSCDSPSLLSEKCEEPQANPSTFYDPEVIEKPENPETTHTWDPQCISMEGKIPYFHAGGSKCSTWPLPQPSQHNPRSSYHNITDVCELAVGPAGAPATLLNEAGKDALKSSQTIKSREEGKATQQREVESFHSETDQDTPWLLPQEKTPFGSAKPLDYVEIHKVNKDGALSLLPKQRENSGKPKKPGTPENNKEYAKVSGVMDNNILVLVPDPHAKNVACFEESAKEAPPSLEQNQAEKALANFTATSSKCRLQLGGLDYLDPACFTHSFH
# Protocol details: cell-based or functional assay
Measured property: % Kill, MCF7/PRLR cells (%)
Output spec: scalar in %, unitless text.

Example entries begin here.
H1H6958N2-mc-VC-PAB-MMAE (antibody, human IgG1, V domains shown, MMAE conjugated through cleavable mc-vc-PAB linker; attachment residues not stated) VH: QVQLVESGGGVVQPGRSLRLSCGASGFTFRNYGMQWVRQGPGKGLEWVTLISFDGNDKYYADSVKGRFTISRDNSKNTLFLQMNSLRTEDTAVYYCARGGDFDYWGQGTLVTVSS VL: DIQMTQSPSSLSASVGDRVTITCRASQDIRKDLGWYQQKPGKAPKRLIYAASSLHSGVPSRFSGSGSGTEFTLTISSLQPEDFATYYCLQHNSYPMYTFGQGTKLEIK
88
H1H6765P-DM1 (antibody, human IgG1, V domains shown, DM1 conjugated through SMCC linker; attachment residues not stated) VH: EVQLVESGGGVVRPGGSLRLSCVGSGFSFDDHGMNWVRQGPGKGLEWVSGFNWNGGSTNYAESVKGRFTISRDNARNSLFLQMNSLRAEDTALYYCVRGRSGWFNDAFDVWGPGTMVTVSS VL: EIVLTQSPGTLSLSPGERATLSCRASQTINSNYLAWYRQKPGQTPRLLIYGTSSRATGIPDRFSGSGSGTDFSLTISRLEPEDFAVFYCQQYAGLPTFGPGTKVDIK
81

Here's the next entry for you.
Record request: % Kill, MCF7/PRLR cells value, item H1H6953N-DM1 (antibody, human IgG1, V domains shown, DM1 conjugated through SMCC linker; attachment residues not stated) VH: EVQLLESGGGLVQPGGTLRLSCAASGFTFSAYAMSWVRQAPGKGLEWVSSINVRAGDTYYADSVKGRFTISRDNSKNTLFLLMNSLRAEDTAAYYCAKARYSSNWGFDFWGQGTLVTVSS VL: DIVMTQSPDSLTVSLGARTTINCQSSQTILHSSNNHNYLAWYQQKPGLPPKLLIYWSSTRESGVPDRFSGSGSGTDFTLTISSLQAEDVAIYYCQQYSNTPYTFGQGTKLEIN 80
